- Test system: MOLT-4 leukemia
- Assay comment: NCI-60 one-dose screen, 48 h (100 = growth as untreated, 0 = no growth, -100 = all killed)
- Assay setup: 10 µM unless noted
The panel holds about 83,000 compounds, 20% with a hit somewhere; the sample as a whole holds those more often.
Values of growth greater than or equal to 40% map to rule met; values below map to rule not met.

Query: Please check the record O=c1nc(NO)[nH]c(=O)n1Cc1ccc(F)cc1 and state if its growth is at or above 40%.
Reply: rule met

Query: Identify whether the reported growth of the following compound is 40% or greater: Cc1ccc(S(=O)(=O)N(c2ccc(Cl)cc2)c2ccc(Br)cc2C(=O)O)cc1
Reply: rule met

Query: Given CCCCCCCC/C=C\CCCCCCCCOc1cccc(CC(=O)NCC[N+]2(C)CCCC2)c1 , state whether its growth is at least 40%.
Reply: rule met

Query: Is it the case that COc1ccccc1/C=C/C(=O)/C=C/c1ccccc1O has growth reaching or exceeding 40%?
Reply: rule not met

Query: Check the entry O=C1C(Br)=C(c2ccccc2)C(=O)C(Br)=C1c1ccccc1 : does growth equal or exceed 40%?
Reply: rule met

Query: Test whether the compound CCOC(=O)c1cn2c3c(cc(F)cc3c1=O)C(CC)c1ccccc1C2 (stereo not given) records growth of 40% or higher.
Reply: rule met

Query: Test whether the compound O=C1c2ccccc2C(=O)c2c(Nc3ccc(CCO)cc3)ccc(O)c21 records growth of 40% or higher.
Reply: rule not met

Query: Decide: is the reported value of growth for CC(=O)Nc1ccccc1-c1n[nH]c(=O)[nH]c1=O equal to or greater than 40%?
Reply: rule met

Query: Given FC(F)(F)c1cc(CNc2nc(Cl)ncc2Br)cc(C(F)(F)F)c1 , state whether its growth is at least 40%.
Reply: rule met

Query: Answer whether growth of O=C1C2CC3C(CC2C(=O)[N]1[Sn]([c]1ccccc1)([c]1ccccc1)[c]1ccccc1)C1(Cl)C(Cl)=C(Cl)C3(Cl)C1(Cl)Cl (stereo not given) is greater than or equal to 40%.
Reply: rule not met

Query: Is reported growth greater than or equal to 40% here: O=C1NC(=S)S/C1=C\c1cccc([N+](=O)[O-])c1
Reply: rule met

Query: Reported growth reaches at least 40% for COc1cc2nc(N3CCC[C@H](NC4=CC(=O)c5ccccc5C4=O)C3)nc(N)c2cc1OC ?
Reply: rule not met

Query: Quick check, growth >= 40%? CON=C1C[C@]2(C[C@@H]3C[C@@H](C/C=C(\C)C[C@@H](C)/C=C/C=C4\CO[C@@H]5[C@H](O)C(C)=C[C@@H](C(=O)O3)[C@]45O)O2)O[C@H](/C(C)=C/C(C)C)[C@H]1C
Reply: rule not met

Query: Please check the record COc1nc2c(cc1S(=O)(=O)c1ccccc1)CCc1c-2cnn1-c1ccccc1Cl and state if its growth is at or above 40%.
Reply: rule met

Query: Please indicate if the recorded growth for Cc1nc2cc(Nc3nc(N4CCOCC4)nc(N4CCN(C)CC4)n3)ccc2n1Cc1ccccc1 meets or exceeds 40%.
Reply: rule met

Query: Could you tell me if the measured growth of N#Cc1c(O)c2c(c(O)c1C#N)C(=O)c1ccccc1C2=O reaches 40% or more?
Reply: rule not met

Query: Textbook exercise: given the entry Cc1nc2cc(Nc3nc(NCCN)nc(Nc4ccc(F)cc4)n3)ccc2n1Cc1ccccc1 , state whether its growth is greater than or equal to 40%.
Reply: rule not met

Query: # bool: growth of Cc1ccc(C2SCC(=O)N2NC(=O)c2[nH]c3ccc(F)cc3c2-c2ccccc2)cc1 (stereo not given) >= 40%
Reply: rule met

Query: growth >= 40% for COc1ccc(-c2c(-c3cc4c(c(OC)c3OC)OCO4)noc2N)cc1 ?
Reply: rule not met

Query: State whether the measured growth reaches 40%, counting equality as reaching it, for Clc1ccc(C2=NN(c3ccccc3)[C@H](c3cn(-c4ccccc4)nc3-c3ccccc3)C2)cc1
Reply: rule met

Data origin: PubChem BioAssay (NCI)
